Measurement target: Xanthine dehydrogenase/oxidase (Bos taurus, UniProt P80457)
Sequence (P80457 whole entry): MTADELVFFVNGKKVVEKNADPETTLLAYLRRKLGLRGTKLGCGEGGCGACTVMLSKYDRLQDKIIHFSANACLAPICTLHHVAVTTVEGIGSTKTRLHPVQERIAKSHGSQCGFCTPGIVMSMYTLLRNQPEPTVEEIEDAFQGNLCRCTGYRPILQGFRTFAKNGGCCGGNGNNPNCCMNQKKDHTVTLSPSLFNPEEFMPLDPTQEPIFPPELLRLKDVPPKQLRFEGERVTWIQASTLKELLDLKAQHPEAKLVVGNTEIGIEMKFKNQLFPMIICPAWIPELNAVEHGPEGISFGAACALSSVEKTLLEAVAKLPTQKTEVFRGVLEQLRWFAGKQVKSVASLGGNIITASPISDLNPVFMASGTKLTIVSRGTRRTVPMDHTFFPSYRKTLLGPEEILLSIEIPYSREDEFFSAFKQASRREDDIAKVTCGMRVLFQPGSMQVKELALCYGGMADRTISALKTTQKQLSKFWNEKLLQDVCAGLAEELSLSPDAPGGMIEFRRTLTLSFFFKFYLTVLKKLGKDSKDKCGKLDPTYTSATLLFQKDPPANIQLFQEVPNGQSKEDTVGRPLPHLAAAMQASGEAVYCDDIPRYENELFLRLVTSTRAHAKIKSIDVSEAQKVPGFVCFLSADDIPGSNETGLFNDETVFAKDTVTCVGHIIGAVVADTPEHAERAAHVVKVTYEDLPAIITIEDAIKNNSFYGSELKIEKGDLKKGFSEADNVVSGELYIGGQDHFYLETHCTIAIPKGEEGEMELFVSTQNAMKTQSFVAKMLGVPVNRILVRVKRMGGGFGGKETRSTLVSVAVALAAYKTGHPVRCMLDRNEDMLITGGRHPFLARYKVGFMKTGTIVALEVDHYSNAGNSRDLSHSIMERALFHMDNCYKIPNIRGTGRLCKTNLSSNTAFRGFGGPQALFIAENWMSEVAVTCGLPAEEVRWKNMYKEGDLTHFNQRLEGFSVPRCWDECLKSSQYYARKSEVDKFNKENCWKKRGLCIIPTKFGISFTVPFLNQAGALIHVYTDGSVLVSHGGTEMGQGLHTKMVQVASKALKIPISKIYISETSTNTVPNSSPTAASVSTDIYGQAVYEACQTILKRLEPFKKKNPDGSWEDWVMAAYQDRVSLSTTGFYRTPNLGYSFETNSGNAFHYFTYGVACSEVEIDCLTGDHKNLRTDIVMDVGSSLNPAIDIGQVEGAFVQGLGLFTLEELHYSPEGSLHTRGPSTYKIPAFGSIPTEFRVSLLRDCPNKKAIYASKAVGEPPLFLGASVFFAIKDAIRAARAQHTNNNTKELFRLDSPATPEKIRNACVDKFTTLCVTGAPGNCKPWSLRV
Experiment summary: Inhibition of bovine xanthine oxidase assessed as reduction in uric acid formation at 100 uM using xanthine as substrate pretreated for 5 mins followed by substrate addition measured by UV-vis spectrophotometric method relative to control
Assay setup: cattle
If the reported inhibition at 100 µM equals or exceeds 60%, assign Satisfied. If not, assign Not satisfied.

Does COc1ccc(Nc2ncnc3c2C(c2ccccc2OC)c2c(n[nH]c2C)O3)cc1 (stereo not given) have a reported inhibition at 100 µM of at least 60%?
Not satisfied

Does COc1ccc(Nc2ncnc3c2C(c2ccc(O)cc2)C2=C(CCCC2=O)O3)cc1 (stereo not given) have a reported inhibition at 100 µM of at least 60%?
Satisfied

Does COc1ccc(Nc2ncnc3c2C(c2ccc(Cl)cc2)c2ccc4ccccc4c2O3)cc1 (stereo not given) have a reported inhibition at 100 µM of at least 60%?
Not satisfied

----------
Measurement target: Xanthine dehydrogenase/oxidase (Bos taurus)
Experiment summary: Inhibition of bovine xanthine oxidase assessed as reduction in uric acid formation at 1 uM using xanthine as substrate pretreated for 5 mins followed by substrate addition measured by UV-vis spectrophotometric method relative to control
Assay setup: cattle
Assay readout: inhibition at 1 µM (%)
Field: numeric (%). Do not append units.

Please report the recorded inhibition at 1 µM for COc1ccc(Nc2ncnc3c2C(c2ccc(OC)cc2)c2c(c(=O)oc4ccccc24)O3)cc1 (stereo not given) .
32.4

Please report the recorded inhibition at 1 µM for COc1ccc(Nc2ncnc3c2C(c2ccccc2)c2c(c(=O)oc4ccccc24)O3)cc1 (stereo not given) .
25.1

Please report the recorded inhibition at 1 µM for COc1ccc(Nc2ncnc3c2C(c2ccc(O)c(O)c2)c2c(c(=O)oc4ccccc24)O3)cc1 (stereo not given) .
35

Please report the recorded inhibition at 1 µM for COc1ccc(Nc2ncnc3c2C(c2ccc(O)c(OC)c2)c2c(c(=O)oc4ccccc24)O3)cc1 (stereo not given) .
33.2

Please report the recorded inhibition at 1 µM for COc1ccc(Nc2ncnc3c2C(c2ccc(O)cc2)C2=C(CCCC2=O)O3)cc1 (stereo not given) .
30.5

----------
Measurement target: Xanthine dehydrogenase/oxidase (Bos taurus, UniProt P80457)
Experiment summary: Inhibition of bovine xanthine oxidase assessed as reduction in uric acid formation at 10 uM using xanthine as substrate pretreated for 5 mins followed by substrate addition measured by UV-vis spectrophotometric method relative to control
Assay setup: cattle
If the reported inhibition at 10 µM equals or exceeds 40%, assign Fulfilled. If not, assign Not fulfilled.

Does COc1ccc(Nc2ncnc3c2C(c2ccc(OC)cc2)c2c(n[nH]c2C)O3)cc1 (stereo not drawn) have a reported inhibition at 10 µM of at least 40%?
Not fulfilled

Does COc1ccc(Nc2ncnc3c2C(c2ccc(O)c(OC)c2)c2c(c(=O)oc4ccccc24)O3)cc1 (stereo not drawn) have a reported inhibition at 10 µM of at least 40%?
Fulfilled

Does COc1ccc(Nc2ncnc3c2C(c2ccccc2)C2=C(CCCC2=O)O3)cc1 (stereo not drawn) have a reported inhibition at 10 µM of at least 40%?
Not fulfilled

Does COc1ccc(Nc2ncnc3c2C(c2cccc(O)c2)C2=C(CCCC2=O)O3)cc1 (stereo not drawn) have a reported inhibition at 10 µM of at least 40%?
Fulfilled

Does COc1ccc(Nc2ncnc3c2C(c2cccc(Cl)c2)C2=C(CCCC2=O)O3)cc1 (stereo not drawn) have a reported inhibition at 10 µM of at least 40%?
Not fulfilled

Does COc1ccc(Nc2ncnc3c2C(c2cccc([N+](=O)[O-])c2)C2=C(CCCC2=O)O3)cc1 (stereo not drawn) have a reported inhibition at 10 µM of at least 40%?
Not fulfilled
